# assay.method.text: folding stability dG unfold (combined trypsin and chymotrypsin); higher = more stable
If the reported folding stability dG unfold equals or exceeds 0.8 kcal/mol, assign 1.0. If not, assign 0.0.

A selection of reference data follows.
SAGGSAKIEIERIEPRPVLVPRPDGSLVPVPEVEVELRIEGDPEKMEEEERKKIEALAEEIAKELGSAGGSA [r2_40_TrMRF] ... 0.0
SAGGSAGGSAGGSNPVDIVEILSYDPEKNTYTFLVKLPDGSTKTITVPGLSVEEIKKELSAGGSAGGSAGGS [r4_357_JUSTAS] ... 1.0

[ask] Hello, I need to know if SAGGSAGGGITAKEAAELLEKYLKEKGYDYEVKIEEVDPVNPTVKITVTFPDGSKLEITLPIVDSAGGSAGG [r6_617_TrMRF] has measured folding stability dG unfold not below 0.8 kcal/mol. Thanks!
[reply] 1.0

[ask] folding stability dG unfold >= 0.8 kcal/mol for SAGGSAGGSAGGSMKVEKFTEIITTPDGKPELIVEKEKTTTPNGGTKTTVTKIIPAKLLSAGGSAGGSAGGS [r4_117_JUSTAS] ?
[reply] 0.0

###

# assay.method.text: folding stability dG unfold (combined trypsin and chymotrypsin); higher = more stable
Give folding stability dG unfold for every item shown.
# number then unit; no other words

Here is how some sequences turned out for folding stability dG unfold.
SAGGSKKKIEKIEIEIEIKNKDGKTYKIKAEIEKVELKDGKVAKIRLEIYNENGEKIAEFEFEIKISAGGSA [r2_215_TrROS_Hall] ... 3.61 kcal/mol
SAGGSAGGSAGMEPPEIKVEVSSDPTPSGMKVETIKDLGKGKTIIVLKPEDGSVSTSTLESAGGSAGGSAGG [r11_55_JUSTAS] ... 0.0414 kcal/mol
SAGGSAGGSMKVEIKFPDGSVKTIPLSPEEPDVPPEALVKELGADNVTITYYTPDGVPINLGISAGGSAGGS [r12_411_JUSTAS] ... 0.706 kcal/mol
SKDPNNEWVVIKFEVTIPVPPGQKPITADEIASQVRQIMQNHGMEITSVEVEYRGNQVTVSVEIVIPKKASA [r9_1134_TrROS] ... 3.22 kcal/mol
SAGGSAGGSAGGSGMTLSVTVLEEKPERLPNGGTIITRTVRIPETGEVIEEVTYEPGALSAGGSAGGSAGGS [r4_94_JUSTAS] ... -0.092 kcal/mol

Give folding stability dG unfold for each of the items listed below.
1. SAGGSFHDLAKELAKKRGLKKVSINMHPEDNSMNINIQNPEKGRPVQGNIPMEDMTPETVLDQIENILESAG [r5_896_TrROS]
2. SAGLNIPPEMTVDELVEFLKSLGVKSYKVEKTEDPESYVVTFEFPDFTVVMTFHPDSVTITVVPKDEPLSAG [r5_899_TrMRF]

[reply]
1. -0.0716 kcal/mol
2. 3.34 kcal/mol

###

# assay.method.text: folding stability dG unfold (combined trypsin and chymotrypsin); higher = more stable
Could you label it T if measured folding stability dG unfold is 3 kcal/mol or higher, and F otherwise?

Below are worked cases with known answers.
SAGGEVLVIELSLEELKNLKPNQTVKIKLPDGSELEVRVEEVDGRLYLFVRNKENPEEVELIEEITIESAGG [r13_745_TrROS_Hall] ... T
SAGGRAEEFATFLAELLRALLPPGEKVRATAVVTPEGVVVRVEHPLGFVAEALVKGDKLVRLELRPVSAGGS [r8_287_TrMRF] ... T
SAGGSKDLEIKITKIKEWDPPNGKQTIRIPIEVYDPENGKPRPPAEELADELQKRFPGMPIKVEPVSAGGSA [r2_27_TrROS] ... F

[ask] Quick check, folding stability dG unfold >= 3 kcal/mol? SAGGSAGGSASAEELAEALRREHPDAEVTVTVTPVPREVGPRPVLEREVTVESVRSPEEPASAGGSAGGSAG [r3_118_JUSTAS]
[reply] F

[ask] Reported folding stability dG unfold at or above 3 kcal/mol? SAGGAPLAERTEPLPDGRTVRRVLEYDPEKRTVRVRTERWAPDGAAEPAEEVLDVPESATSPEFLLASAGGS [r8_461_JUSTAS]
[reply] F
